Origin of the recorded values: paper PMC9911399

# experimental.system: T1, RBFOX1 RRM RbFoxmut (Fox-RRM*) (Homo sapiens, UniProt Q9NWB1 109-208, R118D;E147R;N151S;E152T)
# T1 sequence: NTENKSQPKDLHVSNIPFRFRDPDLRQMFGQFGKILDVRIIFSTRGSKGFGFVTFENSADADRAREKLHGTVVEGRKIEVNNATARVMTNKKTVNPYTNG
# test.name: EMSA; HiTS-Eq, 1 nM pool, 10 min; buffer printed only for the single-RNA assays: 10 mM Tris pH 7.5, 150 mM NaCl, 3.4 mM EDTA, 0.001% NP-40, 30 C
# details: tags: His6 N-terminal (pET28a); label: 5' 32P
The full ranking holds about 16,000 sequences; the median of “ka relative to ugcaugu” is about 0.096, and the highest 2% start at about 0.35. The sample as a whole holds a higher share of the highest values than the screen did.
This section presents binders with their documented binding signal values.

GCGUGAA (DNA:RNA) RNA: GGGAGACCGGAAUUCAGAUUGUCCGCGUGAAUUAAAUCCCGUCGUAGCCACCA DNA 1: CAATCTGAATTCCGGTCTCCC DNA 2: TGGTGGCTACGACGGGATT :: 0.119 KA relative to UGCAUGU

Give the measured binding signal of GUGACUG (DNA:RNA) RNA: GGGAGACCGGAAUUCAGAUUGUCCGUGACUGUUAAAUCCCGUCGUAGCCACCA DNA 1: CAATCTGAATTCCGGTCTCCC DNA 2: TGGTGGCTACGACGGGATT . 0.387 KA relative to UGCAUGU

Give the measured binding signal of GUGAUUC (DNA:RNA) RNA: GGGAGACCGGAAUUCAGAUUGUCCGUGAUUCUUAAAUCCCGUCGUAGCCACCA DNA 1: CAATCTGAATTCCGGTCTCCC DNA 2: TGGTGGCTACGACGGGATT . 0.159 KA relative to UGCAUGU

Give the measured binding signal of GUGAUCG (DNA:RNA) RNA: GGGAGACCGGAAUUCAGAUUGUCCGUGAUCGUUAAAUCCCGUCGUAGCCACCA DNA 1: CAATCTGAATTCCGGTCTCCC DNA 2: TGGTGGCTACGACGGGATT . 0.32 KA relative to UGCAUGU
